Test system: A549 cell line
Assay: Cytotoxicity, MTT assay, A549 cells
Details: Homo sapiens, A549, 24 h, read-out: % Cytotoxicity A549 (100 μΜ)
Output 1.0 for records whose cytotoxicity at 100 µM is lower than 10%, 0.0 for records at or above 10%.

| Test Smiles | Assay Target | Cat |
| --- | --- | --- |
| C#CCNC(=O)c1c(O)c2ccccc2n(CC=Cc2ccccc2)c1=O | A549 cell line | 0.0 |
| CCn1c(=O)c(C(=O)NCc2cn(C/C=C/c3ccccc3)nn2)c(O)c2ccccc21 | A549 cell line | 1.0 |
| CC(C)=CCn1c(=O)c(C(=O)NCc2cn(Cc3ccccc3)nn2)c(O)c2ccccc21 | A549 cell line | 0.0 |
| C#CCNC(=O)c1c(O)c2ccccc2n(Cc2ccccc2)c1=O | A549 cell line | 0.0 |
| C#CCNC(=O)c1c(O)c2ccccc2n(CC)c1=O | A549 cell line | 0.0 |
| CC(C)=CCn1cc(CNC(=O)c2c(O)c3ccccc3n(Cc3ccccc3)c2=O)nn1 | A549 cell line | 0.0 |
| CC(C)=CCn1cc(CNC(=O)c2c(O)c3ccccc3n(CC=Cc3ccccc3)c2=O)nn1 | A549 cell line | 1.0 |
| CCn1c(=O)c(C(=O)NCc2cn(Cc3ccccc3)nn2)c(O)c2ccccc21 | A549 cell line | 1.0 |
| CCn1c(=O)c(C(=O)NCc2cn(CCCc3ccccc3)nn2)c(O)c2ccccc21 | A549 cell line | 0.0 |

---

System: A375 cell line
Assay: Cytotoxicity, MTT assay, A375 cells
Details: Homo sapiens, A-375, 24 h, read-out: % Cytotoxicity A375 (100 μΜ)
Reported cytotoxicity at 100 µM is given for each of the following molecules.

| Test Smiles | Assay Target | Unit Tag | cytotoxicity at 100 µM |
| --- | --- | --- | --- |
| C#CCNC(=O)c1c(O)c2ccccc2n(CCCCCCCC)c1=O | A375 cell line | % | 22.6 |
| Cn1c(=O)c(C(=O)NCc2cn(Cc3ccccc3)nn2)c(O)c2ccccc21 | A375 cell line | % | 0 |
| O=C(NCc1cn(Cc2ccccc2)nn1)c1c(O)c2ccccc2n(Cc2ccccc2)c1=O | A375 cell line | % | 0 |
| C#CCNC(=O)c1c(O)c2ccccc2n(C)c1=O | A375 cell line | % | 7 |
| CC(C)=CCn1c(=O)c(C(=O)NCc2cn(Cc3ccccc3)nn2)c(O)c2ccccc21 | A375 cell line | % | 46.8 |
| O=C(NCc1cn(Cc2ccccc2)nn1)c1c(O)c2ccccc2n(CCCc2ccccc2)c1=O | A375 cell line | % | 23.7 |
| CCn1c(=O)c(C(=O)NCc2cn(CCCc3ccccc3)nn2)c(O)c2ccccc21 | A375 cell line | % | 10.5 |

---

Molecular target: soybean lipoxygenase (LOX) (Glycine max)
Sequence (P08170 whole entry): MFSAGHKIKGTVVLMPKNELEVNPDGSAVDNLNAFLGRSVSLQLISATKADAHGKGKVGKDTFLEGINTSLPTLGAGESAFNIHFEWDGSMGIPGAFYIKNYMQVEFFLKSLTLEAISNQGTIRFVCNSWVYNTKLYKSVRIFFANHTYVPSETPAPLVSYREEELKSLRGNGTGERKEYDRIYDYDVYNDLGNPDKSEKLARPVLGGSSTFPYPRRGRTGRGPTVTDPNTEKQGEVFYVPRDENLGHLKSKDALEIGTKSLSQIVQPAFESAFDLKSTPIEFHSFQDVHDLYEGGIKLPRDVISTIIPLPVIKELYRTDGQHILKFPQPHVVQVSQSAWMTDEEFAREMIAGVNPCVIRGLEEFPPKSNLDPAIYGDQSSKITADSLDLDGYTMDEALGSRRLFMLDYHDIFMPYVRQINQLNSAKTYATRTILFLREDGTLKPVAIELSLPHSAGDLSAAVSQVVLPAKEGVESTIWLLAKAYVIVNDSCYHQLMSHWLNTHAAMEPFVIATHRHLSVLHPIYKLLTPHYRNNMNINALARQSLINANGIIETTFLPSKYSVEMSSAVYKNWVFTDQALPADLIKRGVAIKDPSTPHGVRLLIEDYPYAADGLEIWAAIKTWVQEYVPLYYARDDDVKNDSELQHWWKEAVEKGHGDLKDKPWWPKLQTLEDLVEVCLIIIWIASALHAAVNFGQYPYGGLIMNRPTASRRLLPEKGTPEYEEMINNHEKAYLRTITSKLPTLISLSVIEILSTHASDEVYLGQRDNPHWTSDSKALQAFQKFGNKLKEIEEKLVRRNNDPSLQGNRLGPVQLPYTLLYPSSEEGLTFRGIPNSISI
IC50 for assorted compounds
Readout: IC50 (µM)

| Test Smiles | Meas Value |
| --- | --- |
| CCn1c(=O)c(C(=O)NCc2cn(CCCc3ccccc3)nn2)c(O)c2ccccc21 | 47.5 |
| C#CCNC(=O)c1c(O)c2ccccc2n(Cc2ccccc2)c1=O | 43.2 |
| CC(C)=CCn1cc(CNC(=O)c2c(O)c3ccccc3n(Cc3ccccc3)c2=O)nn1 | 41 |
| CCn1c(=O)c(C(=O)NCc2cn(C/C=C/c3ccccc3)nn2)c(O)c2ccccc21 | 45 |
| O=C(NCc1cn(Cc2ccccc2)nn1)c1c(O)c2ccccc2n(Cc2ccccc2)c1=O | 46 |
| O=C(NCc1cn(Cc2ccccc2)nn1)c1c(O)c2ccccc2n(CCCc2ccccc2)c1=O | 50 |
| CCn1c(=O)c(C(=O)NCc2cn(Cc3ccccc3)nn2)c(O)c2ccccc21 | 51.5 |
| C#CCNC(=O)c1c(O)c2ccccc2n(CC)c1=O | 22.5 |
| C#CCNC(=O)c1c(O)c2ccccc2n(CCCCCCCC)c1=O | 48.3 |

---

viability at 24 h, 100 µM values by entry
Test: Cell viability, MTT assay, HaCaT cells
Settings: human
Readout: viability at 24 h, 100 µM

| Compound | Meas Value |
| --- | --- |
| C#CCNC(=O)c1c(O)c2ccccc2n(CC=Cc2ccccc2)c1=O | 100% |
| C#CCNC(=O)c1c(O)c2ccccc2n(C)c1=O | 61.5% |
| CC(C)=CCn1c(=O)c(C(=O)NCc2cn(Cc3ccccc3)nn2)c(O)c2ccccc21 | 100% |
| COc1cc(C2Oc3cc([C@H]4Oc5cc(O)cc(O)c5C(=O)[C@@H]4O)ccc3OC2CO)ccc1O (stereo partly drawn) [Silibinin, silibinin, reference compound] | 47.2% |
| O=C(NCc1cn(Cc2ccccc2)nn1)c1c(O)c2ccccc2n(CCCc2ccccc2)c1=O | 100% |
| C#CCNC(=O)c1c(O)c2ccccc2n(Cc2ccccc2)c1=O | 88.7% |
| CCn1c(=O)c(C(=O)NCc2cn(Cc3ccccc3)nn2)c(O)c2ccccc21 | 100% |
| CCn1c(=O)c(C(=O)NCc2cn(CCCc3ccccc3)nn2)c(O)c2ccccc21 | 99.6% |
| C#CCNC(=O)c1c(O)c2ccccc2n(CCCCCCCC)c1=O | 76.2% |
| CC(C)=CCn1cc(CNC(=O)c2c(O)c3ccccc3n(CC=Cc3ccccc3)c2=O)nn1 | 98.9% |
| O=C(NCc1cn(Cc2ccccc2)nn1)c1c(O)c2ccccc2n(Cc2ccccc2)c1=O | 86.5% |
| CCn1c(=O)c(C(=O)NCc2cn(C/C=C/c3ccccc3)nn2)c(O)c2ccccc21 | 27.6% |
| C#CCNC(=O)c1c(O)c2ccccc2n(CC)c1=O | 90.5% |
| CC(C)=CCn1cc(CNC(=O)c2c(O)c3ccccc3n(Cc3ccccc3)c2=O)nn1 | 100% |
| Cn1c(=O)c(C(=O)NCc2cn(Cc3ccccc3)nn2)c(O)c2ccccc21 | 100% |

---

Tested on: A375 cell line
Assay: Cytotoxicity, MTT assay, A375 cells
Details: Homo sapiens, A-375, 24 h, read-out: % Cytotoxicity A375 (100 μΜ)
Readout: cytotoxicity at 100 µM

| Test Smiles | Assay Target | Meas Value |
| --- | --- | --- |
| CCn1c(=O)c(C(=O)NCc2cn(C/C=C/c3ccccc3)nn2)c(O)c2ccccc21 | A375 cell line | 35.2% |
| CC(C)=CCn1cc(CNC(=O)c2c(O)c3ccccc3n(Cc3ccccc3)c2=O)nn1 | A375 cell line | 0% |
| C#CCNC(=O)c1c(O)c2ccccc2n(CC=Cc2ccccc2)c1=O | A375 cell line | 11.7% |
| C#CCNC(=O)c1c(O)c2ccccc2n(Cc2ccccc2)c1=O | A375 cell line | 7.6% |
| C#CCNC(=O)c1c(O)c2ccccc2n(CC)c1=O | A375 cell line | 0.2% |

---

Assay: Inhibition of linoleic acid peroxidation induced by AAPH radical
Settings: 100 μM, 37 °C, pH 7.4
Readout: Inhibition of Linoleic Acid Peroxidation (% at 100 μΜ) (%)

| Compound | Unit Tag | Meas Value |
| --- | --- | --- |
| C#CCNC(=O)c1c(O)c2ccccc2n(CCCc2ccccc2)c1=O | % | 81.1 |
| C#CCNC(=O)c1c(O)c2ccccc2n(CC=Cc2ccccc2)c1=O | % | 27.6 |
| CCn1c(=O)c(C(=O)NCc2cn(Cc3ccccc3)nn2)c(O)c2ccccc21 | % | 94.0 |
| CCn1c(=O)c(C(=O)NCc2cn(CCCc3ccccc3)nn2)c(O)c2ccccc21 | % | 92.0 |
| CC(C)=CCn1cc(CNC(=O)c2c(O)c3ccccc3n(CC=Cc3ccccc3)c2=O)nn1 | % | 18.7 |
| CCn1c(=O)c(C(=O)NCc2cn(CC=C(C)C)nn2)c(O)c2ccccc21 | % | 96.0 |
| CC(C)=CCn1cc(CNC(=O)c2c(O)c3ccccc3n(Cc3ccccc3)c2=O)nn1 | % | 92.0 |
| C#CCNC(=O)c1c(O)c2ccccc2n(Cc2ccccc2)c1=O | % | 14.7 |
| C#CCNC(=O)c1c(O)c2ccccc2n(C)c1=O | % | 42.7 |
| C#CCNC(=O)c1c(O)c2ccccc2n(CCCCCCCC)c1=O | % | 34.9 |
| O=C(NCc1cn(Cc2ccccc2)nn1)c1c(O)c2ccccc2n(Cc2ccccc2)c1=O | % | 89.0 |
| Cc1c(C)c2c(c(C)c1O)CCC(C)(C(=O)O)O2 (centres unmarked) [Trolox, reference compound] | % | 88.0 |
| Cn1c(=O)c(C(=O)NCc2cn(Cc3ccccc3)nn2)c(O)c2ccccc21 | % | 98.0 |
| CCn1c(=O)c(C(=O)NCc2cn(C/C=C/c3ccccc3)nn2)c(O)c2ccccc21 | % | 91.0 |
| CC(C)=CCn1c(=O)c(C(=O)NCc2cn(Cc3ccccc3)nn2)c(O)c2ccccc21 | % | 83.0 |
| C#CCNC(=O)c1c(O)c2ccccc2n(CC)c1=O | % | 100 |
| O=C(NCc1cn(Cc2ccccc2)nn1)c1c(O)c2ccccc2n(CCCc2ccccc2)c1=O | % | 98.0 |
